These data points were gathered from patent US20240238423A9.

Target: Human BCL-XL protein (N-terminal HiBiT tagged BCL-XL in HT1080 cells) (Homo sapiens, UniProt Q07817)
Construct: expressed in transfected cells; host or cells: HT-1080 (ATCC CCL-121), stably transduced with lentivirus pLV-UBC-N-HiBiT-BCL-XL-PGK-puro and selected with puromycin
Sequence (Q07817 whole entry): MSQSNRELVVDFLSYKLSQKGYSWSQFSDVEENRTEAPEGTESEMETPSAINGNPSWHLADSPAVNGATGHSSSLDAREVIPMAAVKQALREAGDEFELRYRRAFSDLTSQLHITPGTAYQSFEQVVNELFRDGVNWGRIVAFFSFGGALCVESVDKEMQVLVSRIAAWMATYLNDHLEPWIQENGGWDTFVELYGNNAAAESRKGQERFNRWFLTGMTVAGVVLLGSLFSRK
Assay: HiBiT based degradation assay
Type: cell-based
Conditions: BCL-XL degradation; HT1080 cells expressing HiBiT-BCL-XL; 6 h; read-out: EC50 (6 h)
readout type: DC50

Query: Would you kindly share the measured DC50 for Cc1c(OCCCCCCCCN2CCN(c3cccc4c(C5CCC(=O)NC5=O)nn(C)c34)CC2)cccc1-c1ccc(N2CCc3cccc(C(=O)Nc4nc5ccccc5s4)c3C2)nc1C(=O)O (stereo not shown) ?
Result: < 100 nM

Query: // next record Cc1c(O[C@H]2CC[C@H](CCCN3CCN(c4cccc5c(C6CCC(=O)NC6=O)nn(C)c45)CC3)CC2)cccc1-c1ccc(N2CCc3cccc(C(=O)Nc4nc5ccccc5s4)c3C2)nc1C(=O)O (stereo partly shown) [Compound 147a]
Result: < 100 nM

Query: Also Cc1c(OCC2CC3(CCN(CC(=O)Nc4ccc5c(C6CCC(=O)NC6=O)nn(C)c5c4)CC3)C2)cccc1-c1ccc(N2CCc3cccc(C(=O)Nc4nc5ccccc5s4)c3C2)nc1C(=O)O (stereo not shown) , if possible.
Result: < 100 nM

Query: Item: Cc1c(OCCCN2CCC(CC(=O)Nc3ccc4c(C5CCC(=O)NC5=O)nn(C)c4c3)CC2)cccc1-c1ccc(N2CCc3cccc(C(=O)Nc4nc5ccccc5s4)c3C2)nc1C(=O)O (stereo not shown)
Result: < 100 nM

Query: Next compound: Cc1c(OCCC[C@H]2CCCN(CC(=O)Nc3cccc4c(C5CCC(=O)NC5=O)nn(C)c34)C2)cccc1-c1ccc(N2CCc3cccc(C(=O)Nc4nc5ccccc5s4)c3C2)nc1C(=O)O (single isomer, unassigned) [Compound 210b]
Result: 1000 to 10000 nM

Query: For Cc1c(Oc2ccc(CC(F)(F)CN3CCN(c4cccc5c(C6CCC(=O)NC6=O)nn(C)c45)CC3)cc2)cccc1-c1ccc(N2CCc3cccc(C(=O)Nc4nc5ccccc5s4)c3C2)nc1C(=O)O (stereo not shown) then?
Result: 1000 to 10000 nM

Query: Record: Cc1c(OCCCCCCCN2CCN(c3ccc4c(C5CCC(=O)NC5=O)nn(C)c4c3)CC2)cccc1-c1ccc(N2CCc3cccc(C(=O)Nc4nc5ccccc5s4)c3C2)nc1C(=O)O (stereo not shown)
Result: < 100 nM

Query: // query: Cc1c(-c2ccc(N3CCc4cccc(C(=O)Nc5nc6ccccc6s5)c4C3)nc2C(=O)NCC(=O)Nc2ccc3c(C4CCC(=O)NC4=O)nn(C)c3c2)cnn1CC12CC3CC(CC(C3)C1)C2 (stereo not shown)
Result: < 100 nM

Query: Continue with Cc1c(OCCCC2CCN(CC(=O)N3CCN(c4ccc5c(C6CCC(=O)NC6=O)nn(C)c5c4)CC3)CC2)cccc1-c1ccc(N2CCc3cccc(C(=O)Nc4nc5ccccc5s4)c3C2)nc1C(=O)O (stereo not shown)
Result: < 100 nM

Query: For Cc1c(OCCCCCCN2CCN(c3ccc4c(C5CCC(=O)NC5=O)nn(C)c4c3)CC2)cccc1-c1ccc(N2CCc3cccc(C(=O)Nc4nc5ccccc5s4)c3C2)nc1C(=O)O (stereo not shown) then?
Result: < 100 nM

###

So I've got a bunch of compounds here, and I need their DC50 values.
Molecular target: Human BCL-XL protein (N-terminal HiBiT tagged BCL-XL in HT1080 cells) (Homo sapiens)
Construct: expressed in transfected cells; host or cells: HT-1080 (ATCC CCL-121), stably transduced with lentivirus pLV-UBC-N-HiBiT-BCL-XL-PGK-puro and selected with puromycin
Test: HiBiT based degradation assay
Assay type: cell-based
Details: BCL-XL degradation; HT1080 cells expressing HiBiT-BCL-XL; 6 h; read-out: EC50 (6 h)

Query: If you can, please state the reported DC50 value of Cc1c(Oc2ccccc2CCCC(=O)Nc2ccc3c(C4CCC(=O)NC4=O)nn(C)c3c2)cccc1-c1ccc(N2CCc3cccc(C(=O)Nc4nc5ccccc5s4)c3C2)nc1C(=O)O (stereo not shown) [Compound 129] .
Result: 1000 to 10000 nM

Query: Same again, this time with Cc1c(-c2ccc(N3CCc4cccc(C(=O)Nc5nc6ccccc6s5)c4C3)nc2C(=O)NCCCCCCCCCC(=O)Nc2ccc3c(C4CCC(=O)NC4=O)nn(C)c3c2)cnn1CC12CC3CC(CC(C3)C1)C2 (stereo not shown) [Compound 112]
Result: < 100 nM

Query: And the next one, Cc1c(OCCN2CCN(CC(=O)N3CCN(c4ccc5c(C6CCC(=O)NC6=O)nn(C)c5c4)CC3)CC2)cccc1-c1ccc(N2CCc3cccc(C(=O)Nc4nc5ccccc5s4)c3C2)nc1C(=O)O (stereo not shown) [Compound 141] ?
Result: < 100 nM

Query: Lookup Cc1c(CCCCN2CCN(CC(=O)Nc3ccc4c(C5CCC(=O)NC5=O)nn(C)c4c3)CC2)cccc1-c1ccc(N2CCc3cccc(C(=O)Nc4nc5ccccc5s4)c3C2)nc1C(=O)O (stereo not shown) [Compound 130]
Result: < 100 nM

Query: Check Cc1c(-c2ccc(N3CCc4cccc(C(=O)Nc5nc6ccccc6s5)c4C3)nc2C(=O)NCCCCCC(=O)Nc2ccc3c(C4CCC(=O)NC4=O)nn(C)c3c2)cnn1CC12CC3CC(CC(C3)C1)C2 (stereo not shown) [Compound 111] too.
Result: < 100 nM

Query: Okay, and Cc1c(O[C@H]2CC[C@H](CCC(=O)Nc3ccc4c(C5CCC(=O)NC5=O)nn(C)c4c3)CC2)cccc1-c1ccc(N2CCc3cccc(C(=O)Nc4nc5ccccc5s4)c3C2)nc1C(=O)O (stereo partly shown) [Compound 125a] ?
Result: 1000 to 10000 nM

Query: Request: Cc1c(OCCCN2CCN(CC(=O)Nc3ccc4c(C5CCC(=O)NC5=O)nn(C)c4c3)CC2)cccc1-c1ccc(N2CCc3cccc(C(=O)Nc4nc5ccccc5s4)c3C2)nc1C(=O)O (stereo not shown) [Compound 104]
Result: < 100 nM

Query: Next compound: Cc1c(Oc2ccc(CCCC(=O)Nc3ccc4c(C5CCC(=O)NC5=O)nn(C)c4c3)cc2)cccc1-c1ccc(N2CCc3cccc(C(=O)Nc4nc5ccccc5s4)c3C2)nc1C(=O)O (stereo not shown) [Compound 132]
Result: 1000 to 10000 nM

Query: Same thing, different compound: Cc1c(Oc2ccc(CCCN3CCN(c4ccc5c(C6CCC(=O)NC6=O)nn(C)c5c4)CC3)cc2)cccc1-c1ccc(N2CCc3cccc(C(=O)Nc4nc5ccccc5s4)c3C2)nc1C(=O)O (stereo not shown) [Compound 149]
Result: < 100 nM

Query: Okay, and Cc1cc(OCCCN2CCN(CC(=O)Nc3cccc4c(C5CCC(=O)NC5=O)nn(C)c34)CC2)ccc1-c1ccc(N2CCc3cccc(C(=O)Nc4nc5ccccc5s4)c3C2)nc1C(=O)O (stereo not shown) [Compound 242] ?
Result: 1000 to 10000 nM

###

Target: Human BCL-XL protein (N-terminal HiBiT tagged BCL-XL in HT1080 cells) (Homo sapiens, UniProt Q07817)
Construct: expressed in transfected cells; host or cells: HT-1080 (ATCC CCL-121), stably transduced with lentivirus pLV-UBC-N-HiBiT-BCL-XL-PGK-puro and selected with puromycin
Assay: HiBiT based degradation assay
Format: cell-based
Conditions: BCL-XL degradation normalized with DMSO control; HT1080 cells expressing HiBiT-BCL-XL; 24 h
readout type: Ymin (24 h)

Solved cases below.
>  <compound>
Cc1c(OCCN2CCN(CC(=O)N3CCN(c4ccc5c(C6CCC(=O)NC6=O)nn(C)c5c4)CC3)CC2)cccc1-c1ccc(N2CCc3cccc(C(=O)Nc4nc5ccccc5s4)c3C2)nc1C(=O)O (centres unmarked)

>  <readout type>
Ymin (24 h)

>  <reported>
A (Ymin < 50%)

$$$$
>  <compound>
Cc1c(OCCCCCCN2CCN(c3ccc4c(C5CCC(=O)NC5=O)nn(C)c4c3)CC2)cccc1-c1ccc(N2CCc3cccc(C(=O)Nc4nc5ccccc5s4)c3C2)nc1C(=O)O (centres unmarked)

>  <readout type>
Ymin (24 h)

>  <reported>
A (Ymin < 50%)

$$$$
>  <compound>
Cc1c(O[C@H]2CC[C@@H](CCCC3CCN(c4ccc5c(C6CCC(=O)NC6=O)nn(C)c5c4)CC3)CC2)cccc1-c1ccc(N2CCc3cccc(C(=O)Nc4nc5ccccc5s4)c3C2)nc1C(=O)O (some centres unmarked) [Compound 311a]

>  <readout type>
Ymin (24 h)

>  <reported>
B (50% ≤ Ymin < 70%)

$$$$
>  <compound>
Cc1c(O[C@H]2CC[C@H](CCCCN3CCN(c4cccc5c(C6CCC(=O)NC6=O)nn(C)c45)CC3)CC2)cccc1-c1ccc(N2CCc3cccc(C(=O)Nc4nc5ccccc5s4)c3C2)nc1C(=O)O (some centres unmarked) [Compound 204a]

>  <readout type>
Ymin (24 h)

>  <reported>
B (50% ≤ Ymin < 70%)

$$$$

Turning now to a further compound:
Query: What value of Ymin (24 h) has been recorded for this entry: Cc1c(OCCC[C@H]2CCN(CC(=O)Nc3cccc4c(C5CCC(=O)NC5=O)nn(C)c34)C2)cccc1-c1ccc(N2CCc3cccc(C(=O)Nc4nc5ccccc5s4)c3C2)nc1C(=O)O (some centres unmarked) [Compound 240b]
Result: B (50% ≤ Ymin < 70%)
